Measured IC50 of individual entries
Target: UniProtKB Q96EB6
Sequence (Q96EB6 whole entry): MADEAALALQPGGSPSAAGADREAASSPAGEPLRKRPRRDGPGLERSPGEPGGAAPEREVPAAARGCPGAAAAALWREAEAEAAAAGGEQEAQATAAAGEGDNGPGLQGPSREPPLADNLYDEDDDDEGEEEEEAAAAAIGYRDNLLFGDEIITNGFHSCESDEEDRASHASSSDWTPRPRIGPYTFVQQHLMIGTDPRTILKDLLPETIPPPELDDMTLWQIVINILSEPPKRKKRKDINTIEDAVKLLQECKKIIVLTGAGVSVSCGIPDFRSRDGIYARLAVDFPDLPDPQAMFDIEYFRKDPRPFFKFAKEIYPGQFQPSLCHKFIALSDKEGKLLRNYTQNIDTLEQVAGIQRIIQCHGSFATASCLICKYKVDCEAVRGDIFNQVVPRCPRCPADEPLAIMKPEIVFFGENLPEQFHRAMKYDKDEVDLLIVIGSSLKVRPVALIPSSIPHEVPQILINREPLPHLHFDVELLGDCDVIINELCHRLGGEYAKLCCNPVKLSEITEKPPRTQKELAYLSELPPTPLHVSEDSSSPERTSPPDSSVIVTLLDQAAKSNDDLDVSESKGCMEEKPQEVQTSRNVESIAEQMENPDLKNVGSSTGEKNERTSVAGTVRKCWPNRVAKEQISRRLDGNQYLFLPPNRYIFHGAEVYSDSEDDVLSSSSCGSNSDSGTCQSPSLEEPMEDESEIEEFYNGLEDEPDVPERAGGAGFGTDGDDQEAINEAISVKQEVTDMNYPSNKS
Assay: Inhibition of human recombinant SIRT1 by fluorimetric analysis

compound	IC50
COC(=O)/C=C/c1cccc(Nc2ccccc2C(N)=O)c1	65 µM
NC(=O)c1ccccc1Nc1cccc(CO)c1	60 µM
NC(=O)c1ccccc1Nc1cccc(Oc2ccccc2)c1	58 µM
Cc1cccc(Nc2ccccc2C(N)=O)c1	68 µM
NC(=O)c1ccccc1Nc1ccccc1 [ANILINOBENZAMIDE]	56 µM

Then there is this compound:
Enquiry: Please report the recorded IC50 for NC(=O)c1ccccc1Sc1ccccc1 .
Return: 78 µM

* * *

Listed here: items and their measured GI50.
Test system: Daudi
Assay: Growth inhibition of human Daudi cells after 24 hrs by alamar blue assay
Type: functional
Conditions: 72 h, in the assay text read “after 72 hrs” for “after 24 hrs”
All answers are understood in µM, so give the number only.

Examples from the recorded data:
molecule	tested_target	observation_type	observed
NC(=O)c1ccccc1Nc1cccc(-c2ccccc2)c1	Daudi	GI50	26
NC(=O)c1ccccc1Nc1cccc(Oc2ccccc2)c1	Daudi	GI50	31

Enquiry: Name the recorded GI50 for NC(=O)c1ccccc1Nc1ccccc1 [ANILINOBENZAMIDE] .
Return: 77
